// data source = patent US8309558B2

Biological target: HCV NS5B RdRp genotype 1b (Hepatitis C virus genotype 1b)
Construct: The protein was expressed with an 18 amino acid C-terminal truncation to enhance the solubility; made in house; host or cells: E. coli BL21(DE3), pET21a vector
Assay: Standard HCV NS5B RdRp enzyme assay
Format: biochemical
Conditions: Table 1a; HCV NS5B RdRp genotype 1b; read-out: IC50
Protocol: HCV NS5B RdRp cloning, expression, and purification. The cDNA encoding the NS5B protein of HCV, genotype 1b, was cloned into the pET21a expression vector. The protein was expressed with an 18 amino acid C-terminal truncation to enhance the solubility. […] Standard HCV NS5B RdRp enzyme assay. […] Plates were read on a Packard Top Count NXT after >1 hr incubation at room temperature. IC50 values for compounds were determined using seven different [I]. […]
pIC50: −log10 of the molar value.
VALUE KIND: pIC50

Below, each entry is followed by its recorded pIC50 result.
| COMPOUND | OBSERVED RESULT |
| --- | --- |
| CNC(=O)c1c(-c2ccc(F)cc2)oc2ccc(-c3cccc(C(=O)N4CCCC4C)c3)cc12 (centres unmarked) | 6.00 to 6.60 |
| CC(C)Oc1cc2c(-c3ncn[nH]3)c(-c3ccc(F)cc3)oc2cc1N(C)S(C)(=O)=O | 6.00 to 6.60 |

stdin: I'd like to know its pIC50. The compound in question is CNC(=O)c1c(-c2ccc(F)cc2)oc2ccc(-c3cccc(C(=O)N[C@H]4CCC[C@H]4c4ccc(Cl)cc4)c3)cc12 [drawing 243]
stdout: < 5.00

stdin: Could you share which pIC50 value was measured for `CNC(=O)c1c(-c2ccc(F)cc2)oc2ccc(-c3cc(C(=O)NCC(C)C)ccc3OC3CCC3)cc12` ?
stdout: < 5.86

stdin: Fill blank: measured pIC50 of the compound `CNC(=O)c1c(-c2ccc(F)cc2)oc2ccc(Oc3ccc(/C=C(\NC(=O)c4ccccc4)C(=O)OC)cc3)cc12` is ____.
stdout: 5.00 to 6.00

stdin: Which measured pIC50 value corresponds to `CNC(=O)c1c(-c2ccc(F)cc2)oc2ccc(-c3cccc(C(=O)NC(C)(C)C(=O)NC)c3)cc12` ?
stdout: > 6.60

stdin: # query: pIC50 of entry `CNC(=O)c1c(-c2ccc(F)cc2)oc2ccc(-c3cccc(C(=O)NC4(c5ccccc5)CCC4)c3)cc12`
stdout: > 6.60

stdin: Name the recorded pIC50 for `CNC(=O)c1c(-c2ccc(F)cc2)oc2ccc(-c3ccc(CO)cc3)cc12` .
stdout: < 5.00

stdin: So what does the record say about pIC50 for `CNC(=O)c1c(-c2ccc(F)cc2)oc2ccc(-c3cccc(C(=O)N[C@@H](CO)C(C)(C)C)c3)cc12` ?
stdout: 5.00 to 6.00

* * *

biological target: HCV NS5B RdRp genotype 1b (Hepatitis C virus genotype 1b, UniProt Q9WMX2); construct: The protein was expressed with an 18 amino acid C-terminal truncation to enhance the solubility; made in house; host or cells: E. coli BL21(DE3), pET21a vector; assay: Standard HCV NS5B RdRp enzyme assay; format: biochemical; settings: Table 1a; HCV NS5B RdRp genotype 1b; read-out: IC50
Sequence (Q9WMX2 2420-2992): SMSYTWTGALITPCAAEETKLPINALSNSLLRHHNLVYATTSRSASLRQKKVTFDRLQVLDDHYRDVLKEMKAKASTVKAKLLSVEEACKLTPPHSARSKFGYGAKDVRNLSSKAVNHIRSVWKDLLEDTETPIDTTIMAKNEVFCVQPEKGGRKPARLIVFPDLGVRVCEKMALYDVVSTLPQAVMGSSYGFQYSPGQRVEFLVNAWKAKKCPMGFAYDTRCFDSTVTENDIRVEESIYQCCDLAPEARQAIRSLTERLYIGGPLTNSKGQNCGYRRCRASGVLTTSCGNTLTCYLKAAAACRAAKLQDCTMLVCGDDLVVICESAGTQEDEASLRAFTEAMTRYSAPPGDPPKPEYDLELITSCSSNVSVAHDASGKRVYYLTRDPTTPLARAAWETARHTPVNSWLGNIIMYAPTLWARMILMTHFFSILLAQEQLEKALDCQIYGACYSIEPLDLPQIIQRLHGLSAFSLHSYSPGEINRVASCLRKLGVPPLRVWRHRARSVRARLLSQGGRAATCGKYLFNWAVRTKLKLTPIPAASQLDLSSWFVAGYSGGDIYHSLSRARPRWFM
Each entry below carries its reported IC50.

| STRUCTURE SMILES | IC50 |
| --- | --- |
| CNC(=O)c1c(-c2ccc(F)cc2)oc2ccc(-c3cccc(C(=O)N(C)c4ccncc4)c3)cc12 | 1000 to 10000 nM |

stdin: Tell me reported IC50 for `CNC(=O)c1c(-c2ccc(F)cc2)oc2ccc(-c3cccc(C(=O)Nc4ccccc4OC)c3)cc12` , tested with HCV NS5B RdRp genotype 1b (Hepatitis C virus genotype 1b, UniProt Q9WMX2).
stdout: 250 to 1000 nM

stdin: Recorded IC50 for `CNC(=O)c1c(-c2ccc(F)cc2)oc2ccc(-c3ccc(OCC(C)C)cc3)cc12` with HCV NS5B RdRp genotype 1b (Hepatitis C virus genotype 1b, UniProt Q9WMX2), please?
stdout: > 10000 nM

stdin: Return IC50 measured with HCV NS5B RdRp genotype 1b (Hepatitis C virus genotype 1b, UniProt Q9WMX2) given this compound: `CNC(=O)c1c(-c2ccc(F)cc2)oc2ccc(-c3cccc(C(=O)N4CCC[C@H]4C(=O)N(C)C)c3)cc12`
stdout: 250 to 1000 nM

stdin: Reported IC50 for HCV NS5B RdRp genotype 1b (Hepatitis C virus genotype 1b, UniProt Q9WMX2), given `CNC(=O)c1c(-c2ccc(F)cc2)oc2ccc(-c3cccc(C(=O)NS(C)(=O)=O)c3)cc12` ?
stdout: 250 to 1000 nM
